- System: L1210 leukemia ip in BDF1 mice, survival T/C
- Test protocol: NCI In Vivo Anticancer Drug Screen. Data for tumor model L1210 Leukemia (intraperitoneal) in B6D2F1 (BDF1) mice
- Protocol conditions: endpoint: mean survival time; dose: 30.0 mg/kg/injection; schedule: Q01DX Z (ip); vehicle: carboxymethylcellulose (CMC)
Toxic doses and inconclusive results are not listed. Cut-off read from the data, not from the text of the source: active = T/C of 150% or more; inactive = T/C below 125%.
Valid outcomes are listed here; reply with one: true (1) = active, false (0) = inactive

CN(C)Cc1ccc(NC(=O)c2ccc(C(=O)Nc3ccc(CN(C)C)cc3)cc2)cc1 ... false (0)
CCCN=C(N)c1ccc(N=C(N)c2ccc(N=C(N)c3ccc(C(N)=NCCC)cc3)cc2)cc1 ... false (0)
NC(N)=N/N=C/c1cccc([N+](=O)[O-])c1 ... false (0)
CC(C)=NN=C(N)N ... false (0)
CN(N=O)C(=O)Nc1ccc(NC(=O)N(C)N=O)cc1 ... true (1)

Below: the item to evaluate.
For Nc1ncnc2c1ncn2C(C=O)OC(C=O)CO (stereo unspecified) , which call appears in the assay record?
false (0)

---

- Tested on: L1210 leukemia ip in BDF1 mice, survival T/C
- Test protocol: NCI In Vivo Anticancer Drug Screen. Data for tumor model L1210 Leukemia (intraperitoneal) in B6D2F1 (BDF1) mice
- Protocol conditions: endpoint: mean survival time; dose: 400.0 mg/kg/injection; schedule: Q01DX001 (ip); vehicle: Klucel (hydroxypropylcellulose) (HPC); higher = longer survival
Inconclusive results and toxic doses are left out.
Experimental readout: T/C

NC(=S)c1cccc(S(=O)(=O)Nc2ccccc2)c1 ... 101 % of control

Quick check: T/C of `CCCC1(CCC)c2ccccc2C(=O)c2ccccc21` ?
105 % of control

Look up T/C for this molecule: `COc1ccccc1-n1c(O)c(N=Nc2ccccc2C)c(=O)n(-c2ccc(Cl)cc2)c1=S`
98 % of control

Which measured T/C value corresponds to `O=[N+]([O-])c1cccc(/C=C/S(=O)(=O)c2ccccc2)c1` ?
104 % of control

---

- Tested on: L1210 leukemia ip in BDF1 mice, survival T/C
- Test protocol: NCI In Vivo Anticancer Drug Screen. Data for tumor model L1210 Leukemia (intraperitoneal) in B6D2F1 (BDF1) mice
- Protocol conditions: endpoint: mean survival time; dose: 12.5 mg/kg/injection; schedule: Q01DX009 (ip); vehicle: Klucel (hydroxypropylcellulose) (HPC); higher = longer survival
- Procedure: The antitumor activity of compounds was measured in mice bearing transplantable tumors. Survival or tumor size were measured and the results are expressed as the measurement made in the treated group (T) divided by the measurement made in the vehicle treated control group (C). The tumor model used in this assay is L1210 Leukemia (intraperitoneal) in B6D2F1 (BDF1) mice
Toxic doses and inconclusive results are not listed.
Readings of T/C for the listed molecules

[N-]=Cc1c(O)cccc1Cl.[N-]=Cc1cc(Cl)ccc1O.[Ni+2] ... 93 % of control
S=C(S)Nc1cccc2ccccc12 ... 103 % of control
O=NN(CCCl)C(=O)NC1c2cc(Cl)ccc2-c2c(Cl)cc(Cl)cc21 (centres undefined) ... 115 % of control
N#Cc1ccccc1N=NNc1ccccc1C#N ... 112 % of control
Cc1c2cnccc2c(C)c2c1c1ccccc1n2CC1CO1 (centres undefined) ... 113 % of control

Switching to the query record.
Item `Cl[C](Cl)(Cl)[Hg][c]1ccccc1` has what recorded T/C?
110 % of control
